Hello, the source for this data is patent US20230321261A1, in case you need it.

Each entry below carries its recorded Binding EC50 (µg/mL) cynomolgus AXL Average (s.d.).
target entity: T1, human AXL with a cynomolgus monkey extracellular domain (ECD) (Homo sapiens, UniProt P30530, P441T/S191N/S285L/T105A/T112A/T125N/T443A)
T1 construct: aa 1-447); human AXL transmembrane and intracellular part (the remainder of human AXL after the ECD; expressed in transfected cells; host or cells: HEK293T
T1 sequence (P30530 26-894 T105A/T112A/T125N/S191N/S285L/P441T/T443A): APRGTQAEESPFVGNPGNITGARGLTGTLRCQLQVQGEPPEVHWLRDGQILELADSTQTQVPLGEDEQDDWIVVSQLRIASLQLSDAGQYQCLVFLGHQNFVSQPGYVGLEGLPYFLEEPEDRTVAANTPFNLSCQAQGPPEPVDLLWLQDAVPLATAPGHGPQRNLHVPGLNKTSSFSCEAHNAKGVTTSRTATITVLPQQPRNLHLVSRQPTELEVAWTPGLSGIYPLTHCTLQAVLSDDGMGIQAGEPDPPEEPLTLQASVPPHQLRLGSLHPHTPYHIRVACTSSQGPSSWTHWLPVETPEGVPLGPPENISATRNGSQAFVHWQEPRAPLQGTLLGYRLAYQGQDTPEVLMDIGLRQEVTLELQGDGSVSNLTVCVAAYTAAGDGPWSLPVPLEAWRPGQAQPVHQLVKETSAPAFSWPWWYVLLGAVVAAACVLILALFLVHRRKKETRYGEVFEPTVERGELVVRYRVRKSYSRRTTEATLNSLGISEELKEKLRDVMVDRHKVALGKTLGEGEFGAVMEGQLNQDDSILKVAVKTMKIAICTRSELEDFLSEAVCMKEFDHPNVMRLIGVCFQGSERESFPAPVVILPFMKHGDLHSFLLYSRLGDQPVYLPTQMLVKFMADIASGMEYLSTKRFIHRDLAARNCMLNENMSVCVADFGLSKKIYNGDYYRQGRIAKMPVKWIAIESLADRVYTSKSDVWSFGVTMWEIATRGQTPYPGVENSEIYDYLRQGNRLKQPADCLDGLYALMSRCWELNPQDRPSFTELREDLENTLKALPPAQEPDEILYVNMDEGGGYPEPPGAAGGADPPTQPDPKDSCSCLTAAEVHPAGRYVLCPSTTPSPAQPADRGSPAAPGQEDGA
test: Flow cytometry binding to transfected HEK293T cells
recorded conditions: at least 3 experiments
observable: Binding EC50 (µg/mL) cynomolgus AXL Average (s.d.)

>  <molecule>
IgG1-AXL-733: AXL-specific human IgG1,κ antibody, VH SEQ ID NO:34, VL SEQ ID NO:35, FN1 domain binding (antibody, listed as Homo sapiens, V domains shown) VH: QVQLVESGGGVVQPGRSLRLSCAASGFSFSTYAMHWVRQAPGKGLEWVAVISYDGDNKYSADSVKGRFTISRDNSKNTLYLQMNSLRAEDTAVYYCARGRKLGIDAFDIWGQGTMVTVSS VL: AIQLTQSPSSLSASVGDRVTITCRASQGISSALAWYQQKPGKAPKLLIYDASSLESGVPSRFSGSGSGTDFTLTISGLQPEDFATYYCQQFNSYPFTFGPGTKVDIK

>  <readout value>
0.254 (0.114) µg/mL

$$$$
>  <molecule>
IgG1-AXL-183-N52Q: point mutant of IgG1-AXL-183, VH SEQ ID NO:17, VL SEQ ID NO:18 (antibody, listed as Homo sapiens, V domains shown) VH: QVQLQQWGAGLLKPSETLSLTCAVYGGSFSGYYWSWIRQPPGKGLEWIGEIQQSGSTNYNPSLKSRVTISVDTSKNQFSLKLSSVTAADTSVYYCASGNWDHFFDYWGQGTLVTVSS VL: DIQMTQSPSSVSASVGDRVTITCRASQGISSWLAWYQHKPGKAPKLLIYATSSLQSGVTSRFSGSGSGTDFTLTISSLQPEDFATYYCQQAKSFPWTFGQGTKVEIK

>  <readout value>
0.324 (0.121) µg/mL

$$$$
>  <molecule>
IgG1-AXL-183: AXL-specific human IgG1,κ antibody, VH SEQ ID NO:16, VL SEQ ID NO:18, FN1 domain binding (antibody, listed as Homo sapiens, V domains shown) VH: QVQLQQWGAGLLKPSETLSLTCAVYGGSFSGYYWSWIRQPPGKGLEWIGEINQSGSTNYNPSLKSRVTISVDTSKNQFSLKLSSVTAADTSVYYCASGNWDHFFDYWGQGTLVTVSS VL: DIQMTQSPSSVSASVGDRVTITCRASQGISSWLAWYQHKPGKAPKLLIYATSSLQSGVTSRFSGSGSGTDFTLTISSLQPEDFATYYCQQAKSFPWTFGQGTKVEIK

>  <readout value>
0.309 (0.086) µg/mL

$$$$
